test.target: N-type calcium channel (NTCC) (Homo sapiens, UniProt Q00975)
Sequence (Q00975 whole entry): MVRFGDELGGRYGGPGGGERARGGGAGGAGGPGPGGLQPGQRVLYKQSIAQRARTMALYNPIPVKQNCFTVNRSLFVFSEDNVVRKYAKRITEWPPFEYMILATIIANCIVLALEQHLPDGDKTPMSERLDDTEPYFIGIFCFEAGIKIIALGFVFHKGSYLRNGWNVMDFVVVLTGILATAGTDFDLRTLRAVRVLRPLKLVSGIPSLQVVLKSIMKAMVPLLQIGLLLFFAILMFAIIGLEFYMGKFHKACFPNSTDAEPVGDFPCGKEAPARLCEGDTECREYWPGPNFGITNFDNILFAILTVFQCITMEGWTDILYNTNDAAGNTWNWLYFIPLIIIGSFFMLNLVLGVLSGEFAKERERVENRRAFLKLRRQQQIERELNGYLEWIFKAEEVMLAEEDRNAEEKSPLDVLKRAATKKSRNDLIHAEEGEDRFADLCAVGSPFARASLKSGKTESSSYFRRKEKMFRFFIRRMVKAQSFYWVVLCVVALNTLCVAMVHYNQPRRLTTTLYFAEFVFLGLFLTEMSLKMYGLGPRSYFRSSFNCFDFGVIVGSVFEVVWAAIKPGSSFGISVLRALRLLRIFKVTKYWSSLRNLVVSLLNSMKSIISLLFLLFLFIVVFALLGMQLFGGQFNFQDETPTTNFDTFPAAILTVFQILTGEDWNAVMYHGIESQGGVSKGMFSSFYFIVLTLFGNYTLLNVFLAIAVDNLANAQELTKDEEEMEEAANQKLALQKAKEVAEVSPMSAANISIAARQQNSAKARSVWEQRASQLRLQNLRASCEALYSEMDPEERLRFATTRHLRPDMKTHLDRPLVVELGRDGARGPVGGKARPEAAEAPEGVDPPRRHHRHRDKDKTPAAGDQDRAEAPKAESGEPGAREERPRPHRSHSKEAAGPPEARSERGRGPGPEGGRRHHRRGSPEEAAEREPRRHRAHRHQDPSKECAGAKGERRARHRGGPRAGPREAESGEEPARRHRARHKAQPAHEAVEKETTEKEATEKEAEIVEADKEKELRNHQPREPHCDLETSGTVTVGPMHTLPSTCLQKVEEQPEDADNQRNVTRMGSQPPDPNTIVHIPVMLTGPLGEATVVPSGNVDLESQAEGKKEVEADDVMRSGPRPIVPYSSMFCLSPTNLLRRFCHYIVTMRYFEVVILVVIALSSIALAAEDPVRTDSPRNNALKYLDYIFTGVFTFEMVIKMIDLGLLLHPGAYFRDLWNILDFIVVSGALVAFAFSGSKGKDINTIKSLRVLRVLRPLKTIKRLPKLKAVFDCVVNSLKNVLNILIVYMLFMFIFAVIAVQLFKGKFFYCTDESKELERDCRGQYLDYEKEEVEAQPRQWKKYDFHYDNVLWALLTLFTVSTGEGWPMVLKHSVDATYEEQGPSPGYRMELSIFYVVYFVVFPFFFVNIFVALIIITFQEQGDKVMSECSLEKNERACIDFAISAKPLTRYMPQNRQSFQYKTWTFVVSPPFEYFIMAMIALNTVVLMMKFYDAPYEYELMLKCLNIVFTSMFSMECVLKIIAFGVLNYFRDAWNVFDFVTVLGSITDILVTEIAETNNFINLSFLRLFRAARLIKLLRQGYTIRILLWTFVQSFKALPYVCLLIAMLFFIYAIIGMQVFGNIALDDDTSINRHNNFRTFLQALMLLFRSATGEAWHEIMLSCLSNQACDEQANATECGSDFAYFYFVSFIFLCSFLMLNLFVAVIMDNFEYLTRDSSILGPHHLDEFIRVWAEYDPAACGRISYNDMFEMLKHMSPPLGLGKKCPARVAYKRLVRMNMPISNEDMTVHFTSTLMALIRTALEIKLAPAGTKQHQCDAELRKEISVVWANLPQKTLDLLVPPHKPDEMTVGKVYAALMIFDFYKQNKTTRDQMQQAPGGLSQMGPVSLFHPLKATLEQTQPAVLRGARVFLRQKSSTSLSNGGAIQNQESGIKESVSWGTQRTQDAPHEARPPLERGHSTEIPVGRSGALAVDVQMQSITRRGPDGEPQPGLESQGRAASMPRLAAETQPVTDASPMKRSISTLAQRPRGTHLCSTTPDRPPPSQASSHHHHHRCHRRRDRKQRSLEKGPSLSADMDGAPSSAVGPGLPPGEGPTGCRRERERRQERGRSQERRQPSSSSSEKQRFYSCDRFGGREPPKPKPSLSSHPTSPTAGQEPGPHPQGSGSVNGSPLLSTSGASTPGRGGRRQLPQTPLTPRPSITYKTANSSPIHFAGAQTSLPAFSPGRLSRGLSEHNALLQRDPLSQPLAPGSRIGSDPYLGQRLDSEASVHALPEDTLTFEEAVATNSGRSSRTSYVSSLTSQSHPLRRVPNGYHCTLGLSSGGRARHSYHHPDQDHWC
Sequence (P54289 25-956 partner limits assumed): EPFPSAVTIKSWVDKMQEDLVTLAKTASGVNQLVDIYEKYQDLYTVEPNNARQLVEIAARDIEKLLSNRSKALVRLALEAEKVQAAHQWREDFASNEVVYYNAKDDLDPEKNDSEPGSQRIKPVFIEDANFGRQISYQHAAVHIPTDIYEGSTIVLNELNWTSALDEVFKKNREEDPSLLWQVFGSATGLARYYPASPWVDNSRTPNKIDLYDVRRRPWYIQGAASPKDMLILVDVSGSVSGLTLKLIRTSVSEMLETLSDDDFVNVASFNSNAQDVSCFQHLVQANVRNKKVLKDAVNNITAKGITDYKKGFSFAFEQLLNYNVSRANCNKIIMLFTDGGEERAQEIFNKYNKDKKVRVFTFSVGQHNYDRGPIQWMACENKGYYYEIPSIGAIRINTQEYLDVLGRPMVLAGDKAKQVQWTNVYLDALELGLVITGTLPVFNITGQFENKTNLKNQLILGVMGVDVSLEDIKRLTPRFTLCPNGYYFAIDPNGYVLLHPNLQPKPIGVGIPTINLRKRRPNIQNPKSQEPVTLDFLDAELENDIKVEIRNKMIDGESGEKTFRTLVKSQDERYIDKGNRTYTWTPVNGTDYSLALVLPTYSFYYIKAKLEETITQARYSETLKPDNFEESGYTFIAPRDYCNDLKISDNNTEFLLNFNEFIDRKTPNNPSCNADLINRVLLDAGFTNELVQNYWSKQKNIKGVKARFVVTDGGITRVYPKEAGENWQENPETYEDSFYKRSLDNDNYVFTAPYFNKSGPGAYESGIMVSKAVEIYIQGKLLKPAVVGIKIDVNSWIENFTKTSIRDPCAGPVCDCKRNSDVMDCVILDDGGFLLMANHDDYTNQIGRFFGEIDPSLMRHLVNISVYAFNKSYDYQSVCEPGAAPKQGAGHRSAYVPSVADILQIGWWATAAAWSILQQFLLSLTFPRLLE
Sequence (P54289 957-1103 partner limits assumed): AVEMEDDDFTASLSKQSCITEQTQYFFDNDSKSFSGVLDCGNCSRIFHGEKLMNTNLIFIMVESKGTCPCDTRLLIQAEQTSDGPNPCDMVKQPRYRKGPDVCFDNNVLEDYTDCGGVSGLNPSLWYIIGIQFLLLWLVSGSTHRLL
Sequence (P54284 whole entry partner): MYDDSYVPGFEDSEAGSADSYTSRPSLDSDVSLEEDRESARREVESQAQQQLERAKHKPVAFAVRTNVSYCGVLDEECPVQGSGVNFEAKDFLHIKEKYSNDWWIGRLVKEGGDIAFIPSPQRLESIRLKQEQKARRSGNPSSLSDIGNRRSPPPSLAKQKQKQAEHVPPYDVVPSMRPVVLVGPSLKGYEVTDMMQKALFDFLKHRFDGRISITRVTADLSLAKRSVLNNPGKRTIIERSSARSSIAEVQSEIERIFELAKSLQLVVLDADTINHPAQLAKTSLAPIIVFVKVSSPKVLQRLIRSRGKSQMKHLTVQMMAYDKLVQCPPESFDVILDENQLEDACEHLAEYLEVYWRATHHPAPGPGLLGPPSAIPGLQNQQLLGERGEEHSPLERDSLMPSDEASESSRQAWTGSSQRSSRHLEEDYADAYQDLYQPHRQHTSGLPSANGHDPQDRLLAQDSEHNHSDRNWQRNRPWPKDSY
method.notes: FLIPR calcium mobilization assay for N-type calcium channel
protocol.conditions: calcium mobilization in vitro assay; differentiated IMR32 cells
Below, each entry is listed alongside its reported IC50.
Express your answer in nM, writing the number without its unit.

**Q:** What measured IC50 is associated with O=C(CC(=O)N1CCC(NS(=O)(=O)c2cccc(C(F)(F)F)c2)CC1)Nc1ccc(F)cc1F on N-type calcium channel (NTCC) (Homo sapiens, UniProt Q00975)?
**A:** 3180

**Q:** Same question, C=CCC(N)C(=O)N1CCC(N(C(C)C)S(=O)(=O)c2cccc(C(F)(F)F)c2)CC1 (stereo not shown) this time
**A:** 2940

**Q:** Also O=C(Nc1cc(C(F)(F)F)cc(C(F)(F)F)c1)N1CCC(N(C2CC2)S(=O)(=O)c2cccc(C(F)(F)F)c2)CC1 ?
**A:** 2320

**Q:** And the next one, O=C(CN1CCC(NS(=O)(=O)c2cccc(C(F)(F)F)c2)CC1)Nc1ccc(F)cc1 ?
**A:** 1240

* * *

test.target: N-type calcium channel (NTCC) (Homo sapiens, UniProt Q00975)
method.notes: FLIPR calcium mobilization assay for N-type calcium channel
protocol.conditions: calcium mobilization in vitro assay; differentiated IMR32 cells
pIC50 values, listed per item
On this scale, pIC50 is minus log10 of a concentration expressed in M (mol/L).

[[record]]
compound = "CN(C1CCN(CC(=O)Nc2ccc(F)cc2)CC1)S(=O)(=O)c1cccc(C(F)(F)F)c1 [Compound 51]"
assay_value = 6.15

[[record]]
compound = "CC(C)N(C1CCN(CC(=O)Nc2ccc(OC(F)(F)F)cc2)CC1)S(=O)(=O)c1cccc(C(F)(F)F)c1 [Compound 42l]"
assay_value = 6.60

[[record]]
compound = "COc1ccc(CNCC(=O)N2CCC(N(C3CC3)S(=O)(=O)c3ccccc3)CC2)cc1 [Compound 97]"
assay_value = 5.63


Attention now turns to another entry.
**Q:** Give the measured pIC50 of COc1ccc(CNCCC(=O)N2CCC(N(C(C)C)S(=O)(=O)c3cccc(C(F)(F)F)c3)CC2)cc1 .
**A:** 6.49

* * *

test.target: N-type calcium channel (NTCC) (Homo sapiens)
method.notes: FLIPR calcium mobilization assay for N-type calcium channel
protocol.conditions: calcium mobilization in vitro assay; differentiated IMR32 cells
// reported pIC50 for each item listed
Quick note: pIC50 means taking -log10 of the concentration in moles per liter.

[[record]]
molecule = "Cc1cccc(C)c1NC(=O)CN1CCC(N(C(C)C)S(=O)(=O)c2cccc(C(F)(F)F)c2)CC1 [Compound 42a]"
assay_value = 5.95


Kindly consider the entry below.
**Q:** Record CC(C)N(C1CCN(C(=O)CCNc2ccc(F)cc2Cl)CC1)S(=O)(=O)c1cccc(C(F)(F)F)c1 : what is its pIC50 with N-type calcium channel (NTCC) (Homo sapiens)?
**A:** 6.09

* * *

test.target: recombinant rat L-type calcium channel (LTCC) subunits (α1c, α2δ, and β1) (Rattus norvegicus)
method.notes: FLIPR calcium mobilization assay for L-type calcium channel
protocol.conditions: calcium mobilization in vitro assay; HEK293 cells expressing rat LTCC
pIC50: −log10 of the molar value.
reported.metric: pIC50

Some solved cases for reference:
[[record]]
molecule = "COc1ccc(CNCC(=O)N2CCC(N(C3CC3)S(=O)(=O)c3ccc(Cl)cc3)CC2)cc1"
assay_value = "4.70 to 5.00"

[[record]]
molecule = "O=C(CN1CCC(N(C2CC2)S(=O)(=O)c2cccc(Cl)c2)CC1)Nc1ccc(F)cc1"
assay_value = "4.70 to 5.00"

[[record]]
molecule = "Cc1cccc(C)c1NC(=O)CN1CCC(N(C2CC2)S(=O)(=O)c2cccc(C(F)(F)F)c2)CC1"
assay_value = 5.23

[[record]]
molecule = "O=C(CN1CCC(N(C2CC2)S(=O)(=O)c2cccc(C(F)(F)F)c2)CC1)Nc1ccc(C(F)(F)F)cc1F"
assay_value = "< 4.70"

[[record]]
molecule = "COc1cccc(NCCC(=O)N2CCC(N(C(C)C)S(=O)(=O)c3cccc(C(F)(F)F)c3)CC2)c1"
assay_value = "4.70 to 5.00"

[[record]]
molecule = "CC(C)N(C1CCN(CC(=O)NCc2ccc(F)cc2)CC1)S(=O)(=O)c1cccc(C(F)(F)F)c1 [Compound 42k]"
assay_value = 5.38

[[record]]
molecule = "Cc1ccccc1NC(=O)CN1CCC(N(C(C)C)S(=O)(=O)c2cccc(C(F)(F)F)c2)CC1 [Compound 42b]"
assay_value = 5.49

[[record]]
molecule = "CC(C)N(C1CCN(C(=O)CCNc2ccc(F)cc2F)CC1)S(=O)(=O)c1cccc(C(F)(F)F)c1"
assay_value = "< 4.70"


**Q:** Fill in: pIC50 of CC(C)C[C@H](NC1CCCC1)C(=O)N1CCC(N(C(C)C)S(=O)(=O)c2cccc(C(F)(F)F)c2)CC1 [Compound 88c] is ___
**A:** 5.15

**Q:** Let us now turn to COc1ccc(CNCC(=O)N2CCC(N(C3CC3)S(=O)(=O)c3cccc(C(F)(F)F)c3)CC2)cc1
**A:** < 4.70

**Q:** Cool, now CN(C1CCN(C(=O)Nc2cc(C(F)(F)F)cc(C(F)(F)F)c2)CC1)S(=O)(=O)c1ccccc1
**A:** < 4.70

**Q:** // next record COc1ccc(CNCC(=O)N2CCC(N(C(C)C)S(=O)(=O)c3cccc(C(F)(F)F)c3)CC2)cc1
**A:** 4.70 to 5.00

* * *

test.target: N-type calcium channel (NTCC) (Homo sapiens, UniProt Q00975)
method.notes: FLIPR calcium mobilization assay for N-type calcium channel
protocol.conditions: calcium mobilization in vitro assay; differentiated IMR32 cells
Checkbox rule: IC50 lower than 700 nM = rule met; IC50 not lower than 700 nM = rule not met.

Example cases with answers are listed next.
[[record]]
molecule = "COc1ccc(CNCC(=O)N2CCC(N(C3CC3)S(=O)(=O)c3ccc(Cl)cc3)CC2)cc1 [Compound 100]"
test_target = "N-type calcium channel (NTCC) (Homo sapiens, UniProt Q00975)"
cat = "rule met"

[[record]]
molecule = "CC(C)N(C1CCN(C(=O)CCNc2ccc(F)cc2F)CC1)S(=O)(=O)c1cccc(C(F)(F)F)c1"
test_target = "N-type calcium channel (NTCC) (Homo sapiens, UniProt Q00975)"
cat = "rule not met"

[[record]]
molecule = "CC(C)CC(O)C(=O)N1CCC(N(C(C)C)S(=O)(=O)c2cccc(C(F)(F)F)c2)CC1 (stereo not drawn)"
test_target = "N-type calcium channel (NTCC) (Homo sapiens, UniProt Q00975)"
cat = "rule not met"

[[record]]
molecule = "COc1ccccc1NC(=O)CCN1CCC(N(C(C)C)S(=O)(=O)c2cccc(C(F)(F)F)c2)CC1 [Compound 107b]"
test_target = "N-type calcium channel (NTCC) (Homo sapiens, UniProt Q00975)"
cat = "rule met"


Now turn to the next molecule.
**Q:** Just wondering, is IC50 of Cc1cccc(S(=O)(=O)N(C2CC2)C2CCN(CC(=O)Nc3ccc(F)cc3)CC2)c1 [Compound 45] below 700 nM?
**A:** rule not met

* * *

Reported IC50 values follow for various molecules
test.target: recombinant rat L-type calcium channel (LTCC) subunits (α1c, α2δ, and β1) (Rattus norvegicus, UniProt P22002)
method.notes: FLIPR calcium mobilization assay for L-type calcium channel
protocol.conditions: calcium mobilization in vitro assay; HEK293 cells expressing rat LTCC

Observe how each entry below is paired with its result.
[[record]]
molecule = "Cc1cc(C)cc(NC(=O)CN2CCC(N(C3CC3)S(=O)(=O)c3cccc(C(F)(F)F)c3)CC2)c1"
reported_metric = "IC50"
assay_value = "> 20 µM"

[[record]]
molecule = "CN(C1CCN(CC(=O)Nc2ccc(F)cc2)CC1)S(=O)(=O)c1cccc(C(F)(F)F)c1"
reported_metric = "IC50"
assay_value = "> 20 µM"


**Q:** Look at this molecule and give its reported IC50. CCOc1ccccc1NC(=O)CN1CCC(N(C(C)C)S(=O)(=O)c2cccc(C(F)(F)F)c2)CC1 [Compound 42c]
**A:** 9.54 µM

**Q:** Further, for CC(C)N(C1CCN(CC(=O)Nc2ccc(F)cc2)CC1)S(=O)(=O)c1cccc(C(F)(F)F)c1 ?
**A:** 2.68 µM

**Q:** Can you check CC(C)N(C1CCN(CC(=O)N(c2ccc(F)cc2)c2ccc(F)cc2)CC1)S(=O)(=O)c1cccc(C(F)(F)F)c1 next?
**A:** > 20 µM

**Q:** Next entry: O=C(CN1CCC(N(C2CC2)S(=O)(=O)c2cccc(C(F)(F)F)c2)CC1)Nc1cc(F)cc(F)c1
**A:** 6.6 µM

**Q:** Subsequent entry: CC(C)N(C1CCN(C(=O)[C@H](Cc2ccccc2)NCC(N)=O)CC1)S(=O)(=O)c1cccc(C(F)(F)F)c1
**A:** 7.43 µM
